Reference source: ChEMBL document CHEMBL1201862

# Test system: MDA-N
# test summary: NCI tumour cell line growth inhibition, 48 h
The source made the active and inactive calls. Cut-off read from the data, not from the text of the source: active = GI50 up to about 1.1 µM and inactive = higher.
measured property: GI50

| molecule | GI50 |
| --- | --- |
| O=C1/C(=C/c2ccc(O)cc2)Oc2ccccc21 | > 100 µM (inactive) |

Attention now turns to another entry.
Which GI50 value is on record for O=c1cc(-c2ccc(O)c(O)c2)oc2cc(O[C@H]3O[C@H](CO)[C@@H](O)[C@H](O)[C@H]3O)cc(O)c12 ?
> 100 µM (inactive)

---

# Test system: TK-10
# test summary: NCI tumour cell line growth inhibition, 48 h
Calls of active or inactive are those of the source. Rule as the data show it: active = GI50 up to about 1.1 µM and inactive = higher.
Choose one outcome from this list and give only that: t for active, f for inactive

| compound | class |
| --- | --- |
| CN(C)CCNc1ccc2c(=O)n(CCN(C)C)c(=O)n3c4ccc(N)cc4c(=O)c1c23 | t |
| Oc1cc(-c2ccccc2)nc2cc3c(cc12)OCO3 | f |
| COc1ccc(-c2nc(Nc3ccccc3)sc2Cc2sc(Nc3ccccc3)nc2-c2ccc(OC)cc2)cc1 | f |
| CC(C)(C)c1ccc2c(c1)C#Cc1cc(C(C)(C)C)ccc1OCCCO2 | f |
| COC(=O)C1C(=O)C=CN([C@H](C)c2ccccc2)[C@@H]1Cc1ccc(OC)c(OCc2ccccc2)c1I (some centres not stated) | f |

Consider the additional compound presented here.
Field: outcome | Entry: CC1=NN(c2ccccc2)C(=O)/C1=C\c1ccc([N+](=O)[O-])cc1
f

---

# key: entry, value: GI50
# System: HOP-92
# test summary: NCI tumour cell line growth inhibition, 48 h
The source made the active and inactive calls. Rule as the data show it: active = GI50 up to about 1.1 µM and inactive = higher.

| molecule | test system | measured property | endpoint result |
| --- | --- | --- | --- |
| CC1=NN(C(=O)c2ccc(Cl)cc2)C(=O)/C1=C/c1ccco1 | HOP-92 | GI50 | > 100 µM (inactive) |
| CCOC(=O)CN1CCNCCN(CC(=O)OCC)CCNCC1 | HOP-92 | GI50 | > 100 µM (inactive) |
| O=[N+]([O-])c1ccc(-c2ccc(C3=Nn4c(nnc4-c4ccc(Cl)cc4)SC3)o2)cc1 | HOP-92 | GI50 | 38.5 µM (inactive) |

Which GI50 value is on record for CC(=O)OCC1OC(OCC2OC(N3C(=S)N[C@H]([C@@H](O)[C@H](O)[C@H](O)CO)[C@H]3O)C(OC(C)=O)C(OC(C)=O)C2OC(C)=O)C(OC(C)=O)C(OC(C)=O)C1OC(C)=O (some centres undefined) ?
33.5 µM (inactive)

Which GI50 value is on record for O=[N+]([O-])/C(Cl)=C(/C(Cl)=C(Cl)Cl)N1CCOCC1 ?
2.51 µM (inactive)

Which GI50 value is on record for C/C(CC(=O)Nc1cccc(Cl)c1C)=N\NC(N)=S ?
30.1 µM (inactive)

---

# Test system: OVCAR-8
# test summary: NCI tumour cell line growth inhibition, 48 h
The source made the active and inactive calls. Rule as the data show it: active = GI50 up to about 1.1 µM and inactive = higher.
Choose one outcome from this list and give only that: active, inactive

For orientation, consider the following solved cases.
| molecule | test system | class |
| --- | --- | --- |
| NS(=O)(=O)c1ccc(Nc2c3ccccc3nc3c(C(=O)NCCO)cccc23)cc1 | OVCAR-8 | active |
| CNC(=O)OCc1nc(SSc2nc(COC(=O)NC)c(COC(=O)NC)n2C)n(C)c1COC(=O)NC | OVCAR-8 | inactive |
| CCOC(=O)C12C3CCC1C2C(=O)C3 (centres undefined) | OVCAR-8 | inactive |
| Clc1ccc(/C=N/Nc2nnc3c4ccccc4c4ncccc4c3n2)cc1 | OVCAR-8 | inactive |
| CCN(CC)CCN1C(=O)C(=O)N(c2cccc3ccccc23)C1=O | OVCAR-8 | inactive |

Field: outcome | Entry: CC1CCC2CC(=O)OC([C@@H]3C(=O)O[C@@H](C4=CCCC4)C4C(C)CCC43)C12 (some centres undefined)
inactive

Field: outcome | Entry: C[C@@H]1C[C@@H](O)[C@]2(O)O[C@@H]3C[C@@]4(C=O)[C@@H](CC[C@@H]5[C@@H]4CC[C@]4(C)[C@@H](C6=CC(=O)OC6)CC[C@]54O)C[C@H]3O[C@@H]2O1 [CALACTIN]
active

Field: outcome | Entry: CCN(CC)c1ccc2cc(C(=O)Nc3ccc(C)cc3)c(=N)oc2c1
inactive

Field: outcome | Entry: COc1ccc(/C=C2\CN(C)CC3C2=NC(=S)NC3c2ccc(OC)cc2)cc1 (centres undefined)
inactive
